Target: ORP2 (Homo sapiens, UniProt Q9H1P3)
Construct: ORP2(49-480); host or cells: E. coli BL21(DE3)
Sequence (Q9H1P3 49-480): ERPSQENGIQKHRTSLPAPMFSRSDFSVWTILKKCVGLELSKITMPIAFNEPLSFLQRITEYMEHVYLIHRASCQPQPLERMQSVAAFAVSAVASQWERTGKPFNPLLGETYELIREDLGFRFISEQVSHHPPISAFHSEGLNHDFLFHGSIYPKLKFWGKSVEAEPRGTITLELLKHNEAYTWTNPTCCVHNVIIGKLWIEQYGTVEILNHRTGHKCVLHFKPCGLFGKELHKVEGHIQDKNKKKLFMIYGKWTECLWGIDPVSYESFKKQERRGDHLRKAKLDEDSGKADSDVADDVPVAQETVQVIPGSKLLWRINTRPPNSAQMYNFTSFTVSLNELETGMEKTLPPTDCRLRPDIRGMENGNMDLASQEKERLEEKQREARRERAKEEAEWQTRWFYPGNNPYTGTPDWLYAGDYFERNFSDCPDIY
Test: Fluorescence polarisation (FP) competition with NBD-cholesterol, ORP2
Format: binding
Details: single dose, Dose = 10 µM
Text: Protein expression constructs Human ASTER domains of Aster-A(359-547), -B(364-552) and -C(318-504) were subcloned into a pGEX-6p-2rbs vector, thus introducing the cloning artifact ‘GPLGS’.3 The pGEX-6P-1-GST-OSBP(377- […] a gift from James H. Hurley (University of California).4 The pHIS_2His6_Thrombin_STARD4(2-205;C75S) plasmid was a gift from Young Jun Im (Chonnam National University).5 STARD5A was a gift from Nicola Burgess-Brown (Addgene plasmid #42392; http://n2t.net/addgene:42392; […]
What inhibition at 10 µM was measured for each of the following?
One number for each entry, in %.

[[record]]
compound = "Cc1cc(C)c2c3c([nH]c2c1)[C@@]1(C)CC[C@@H](O)C[C@H]1CC3 [Compound 10j]"
meas_value = 15

[[record]]
compound = "Cc1c2c(nc3ccccc13)[C@@]1(C)CC[C@@H](O)C[C@H]1CC2"
meas_value = 43.5

[[record]]
compound = "CC12CCC3CC1CCC21C(=Nc2ccc(N4CCOCC4)cc21)O3 (racemic) [Compound 19a]"
meas_value = 27

[[record]]
compound = "CCCCN(C)c1ccc2c(c1)[C@@]13CC[C@@H]4C[C@@H](CC[C@@]41C)OC3=N2 [Compound 19d]"
meas_value = 51

[[record]]
compound = "C[C@]12CC[C@@H](O)C[C@H]1CCc1c2[nH]c2ncccc12"
meas_value = 2


Provide inhibition at 10 µM for all items below, preserving their order.
1. COc1ccc2c(c1)[C@@]13CC[C@@H]4C[C@@H](CC[C@@]41C)OC3=N2 [Compound 15f]
2. C[C@]12CC[C@@H](O)C[C@H]1CCC(=O)c1cc(C(F)(F)F)ccc1NC2=O [Compound 11e]
3. CC12CCC3CC1CCC21C(=Nc2ccc(NCc4ccccc4)cc21)O3 (stereo not shown) [Compound 19b]
4. C[C@]12CC[C@@H]3C[C@H]1CC[C@@]21C(=Nc2ccccc21)O3 [Compound 15a]
5. COc1ccc2c(c1)C(=O)CC[C@@H]1C[C@H](O)CC[C@]1(C)C(=O)N2 [Compound 11d]

Reply:
[73, 5, 41, 25, 11]

Provide inhibition at 10 µM for all items below, preserving their order.
1. CC12CCC(O)CC1CCc1c2[nH]c2ccc(C(F)(F)F)cc12 (stereo not shown) [Compound 10g]
2. COc1ccc(-c2ccc3c(c2)C24CCC5CC(CCC52C)OC4=N3)cc1 (stereo not shown) [Compound 21b]
3. C[C@]12CC[C@@H]3C[C@H]1CC[C@@]21C(=Nc2ccc(Br)cc21)O3 (racemic) [Compound 15b]
4. CC(C)(C)OC(=O)N1CCN(c2ccc3c(c2)C24CCC5CC(CCC52C)OC4=N3)CC1 (stereo not shown) [Compound 19e]
5. COc1ccc2[nH]c3c(c2c1)CC[C@@H]1C[C@H](O)CC[C@]31C [Compound 10f]
6. C[C@]12CC[C@@H](O)C[C@H]1CCC[C@]21NC(=O)c2ccccc2N1

Reply:
57.7
45
29
34
36.5
6

Provide inhibition at 10 µM for all items below, preserving their order.
1. Cc1cc(C)c2c(c1)NC(=O)[C@@]1(C)CC[C@@H](O)C[C@H]1CCC2=O [Compound 11g]
2. CC12CCC3CC1CCC21C(=Nc2ccc(Cl)cc21)O3 (stereo not shown) [Compound 15c]
3. COc1ccc2c(c1)[C@]1(O)CC[C@@H]3C[C@H](O)CC[C@]3(C)C1=N2 [Compound 14b]
4. C[C@]12CC[C@@H](O)C[C@H]1CCc1c2nc2ccccc2c1-c1ccc(F)cc1
5. C[C@]12CC[C@@H](O)C[C@H]1CCC[C@]21Nc2ccccc2-n2cccc21
6. C[C@]12CC[C@@H]3C[C@H]1CC[C@@]21C(=Nc2c(F)cc(Cl)cc21)O3 [Compound 15i]

Reply:
-1
47
25
14
12
41

Provide inhibition at 10 µM for all items below, preserving their order.
1. Cc1ccc2[nH]c3c(c(=O)c2c1)C[C@@H]1C[C@H](O)CC[C@]31C
2. COc1ccc(-c2nc3c(s2)CC[C@@H]2C[C@H](O)CC[C@]32C)cc1
3. C[C@]12CC[C@@H](O)C[C@H]1CCC(=O)c1cc(Br)ccc1NC2=O [Compound 11b]

Reply:
1. 5
2. 38
3. 2

Provide inhibition at 10 µM for all items below, preserving their order.
1. C[C@]12CC[C@@H](O)C[C@H]1CCc1[nH]c(-c3ccccc3)nc12
2. C[C@]12CC[C@@H](O)C[C@H]1CCc1c2[nH]c2c(F)cc(Cl)cc12 [Compound 10i]
3. CC12CCC3CC1CCC21C(=Nc2ccc(N4CCNCC4)cc21)O3 (stereo not shown)
4. Cc1ccc2[nH]c3c(c2c1)CC[C@@H]1C[C@H](O)CC[C@]31C [Compound 10e]

Reply:
1. 3.5
2. 20
3. 14
4. 50.6

Provide inhibition at 10 µM for all items below, preserving their order.
1. C[C@]12CC[C@@H]3C[C@H]1CC[C@@]21C(=Nc2ccc(N4CCN(Cc5ccncc5)CC4)cc21)O3
2. CCCCCNc1ccc2c(c1)[C@@]13CC[C@@H]4C[C@@H](CC[C@@]41C)OC3=N2 [Compound 19c]
3. C[C@]12CC[C@@H](O)C[C@H]1CCc1sc(N)nc12
4. Cc1cc(C)c2c(c1)N=C1[C@@]2(O)CC[C@@H]2C[C@H](O)CC[C@]12C [Compound 14c]

Reply:
1. 27
2. 38
3. 11
4. 11

Ask: // lookup inhibition at 10 µM | system=ORP2 (Homo sapiens, UniProt Q9H1P3) | key= C[C@]12CC[C@@H]3C[C@H]1CC[C@@]21C(=Nc2ccc(F)cc21)O3 [Compound 15d]
Reply: 25
